assay: BSK_SAg_SRB: Viability Assessment in the BioMAP Diversity Plus: SAg Assay (AID 2283096); settings: primary human HUVEC with PBMC;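 note: cells read one day after compound addition; hits may be either gain or loss of signal compared with DMSO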
The source made the active and inactive calls. Rule for the calls: active = hit-call score of the fitted dose curve at least 0.9, where 1 is the maximum; inactive = score below 0.9.
Please answer using one outcome listed in active, inactive

Observe how each entry below is paired with its result.
COMPOUND | ASSIGNED CATEGORY
FC(F)(F)C(F)(F)C(F)(F)C(F)(F)CCI | inactive
FC(F)(F)C(F)(F)C(F)(F)CI | inactive
CCCCCCC(C)OC(=O)CCCCC(=O)OC(C)CCCCCC (configuration not stated) | inactive
O=C(O)C(F)(F)C(F)(F)C(F)F | inactive
CCCCCCCCCCCCCCCC[N+](C)(C)Cc1ccccc1 | active
O=C(O)C(F)(F)C(F)(F)C(F)(F)C(F)(F)F | inactive
FC(F)(F)C(F)(F)C(F)(F)C(F)(F)C(F)(F)C(F)(F)C(F)(F)Br | inactive
C#C[C@]1(O)CC[C@H]2[C@@H]3CCc4cc(OC)ccc4[C@H]3CC[C@@]21C | inactive

## Task Please indicate how the test categorized `NC(=O)C(F)(F)C(F)(F)C(F)(F)C(F)(F)F` .
## Result inactive

## Task Please indicate how the test categorized `C=C(C)C(=O)OCC(F)(F)C(F)(F)C(F)(F)F` .
## Result inactive

## Task Please indicate how the test categorized `CO[Si](OC)(c1ccccc1)c1ccccc1` .
## Result inactive

---

assay: ATG_VDRE_CIS: Attagene CIS-FACTORIAL HepG2 Assay for human Vitamin D Receptor Element (VDRE) (AID 2282968); conditions: HepG2 VDRE cis-reporter transcription, actives raise or lower the signal
Activity calls are given as the source filed them. The calls were made as follows: active = hit-call score of the fitted dose curve at least 0.9, where 1 is the maximum; inactive = score below 0.9.
OBSERVED PROPERTY: AC50

Field: example entries. Status: answers known.
MOLECULE | VALUE MEASURED
CC(Cc1ccc(O)c(O)c1)C(C)Cc1ccc(O)c(O)c1 (stereo unspecified) | 5.93 µM (active)
CC/C=C\CCOC(=O)c1ccccc1 | inactive
O=C(Cl)C(F)(F)C(F)(F)C(F)(F)C(F)(F)C(F)(F)C(F)(F)C(F)(F)C(F)(F)F | 52.2 µM (active)
c1ccc(-c2ccccc2-c2ccccc2)cc1 | inactive
Cc1ccc(S(=O)(=O)OCC(F)(F)C(F)(F)C(F)(F)C(F)(F)C(F)(F)C(F)F)cc1 | inactive

// sample `C=CC(F)(F)C(F)(F)C(F)(F)C(F)(F)C(F)(F)C(F)(F)C(F)(F)C(F)(F)C=C` , its AC50 was inactive

// sample `O=S(=O)(OCCOC(F)(F)F)C(F)(F)F` , its AC50 was inactive

// sample FC(F)(F)C(F)(F)C(F)(F)C(F)(F)C(F)(F)C(F)(F)CC1CO1 (stereo unspecified) , its AC50 was inactive

// sample `FC(F)(F)C(F)(F)C(F)(F)N(C(F)(F)C(F)(F)C(F)(F)F)C(F)(F)C(F)(F)C(F)(F)F` , its AC50 was inactive

// sample `O=S(=O)(OCC(F)F)C(F)(F)F` , its AC50 was inactive

// sample `[Co]` , its AC50 was inactive

---

assay: CCTE_Shafer_MEA_dev_spike_duration_mean: CCTE's Neural Network Formation Assay for Mean Spike Duration, Shafer Lab (AID 2284051);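 note: mean network spike duration pooled as area under curve over DIV 5 to 12 recordings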
Activity calls are given as the source filed them. How the source made its calls: active means hit-call score of the fitted dose curve at least 0.9, where 1 is the maximum; inactive means score below 0.9.
Please answer using one outcome listed in active, inactive

MOLECULE | ASSIGNED CATEGORY
NC(=O)C(F)(F)C(F)(F)C(F)(F)C(F)(F)F | inactive

## Task Please indicate how the test categorized FC(F)(F)C(F)(F)C(F)(F)C(F)(F)C(F)(F)C(F)(F)CC1CO1 (stereo not given) .
## Result inactive

## Task Please indicate how the test categorized `O=C(O)C(F)(F)C(F)(F)C(F)(F)C(F)(F)C(F)(F)C(F)(F)C(F)(F)C(F)(F)C(F)(F)C(F)F` .
## Result inactive

## Task Please indicate how the test categorized `CC(C)(C)C(=O)CC(=O)C(F)(F)C(F)(F)C(F)(F)F` .
## Result active

## Task Please indicate how the test categorized `O=C(O)C=C(C(F)(F)F)C(F)(F)F` .
## Result inactive
